Values were extracted from paper PMC10935503.

- System: HIV-1 WT strain (IIIB)
- TEST SUMMARY: Anti-HIV-1 activity in MT-4 cells, MTT method, WT strain IIIB
- Format: cell-based
- RUN CONDITIONS: Human immunodeficiency virus 1, IIIB, MT4, read-out: EC50 IIIB
PARAMETER: EC50 (nM)
# unit: nM | format: bare number

Cc1cc(C#N)cc(C)c1Oc1nc(Nc2ccc(C#N)cc2)nc2c1[S+]([O-])CCC2 (centres unmarked) [16a] = 7.99
Cc1cc(C#N)cc(C)c1Oc1nc(NC2CCN(Cc3ccc(NS(C)(=O)=O)cc3)CC2)nc2c1SCCC2 [23g] = 2.37
Cc1cc(C#N)cc(C)c1Oc1nc(NCCN2CCOCC2)nc2c1SCCC2 [compound 20d] = 5690
Cc1cc(/C=C/C#N)cc(C)c1Oc1nc(NCCn2ccc(=O)[nH]c2=O)nc2c1SCCC2 [20b] = 20
Cc1cc(C)c(Oc2nc(NC3CCN(Cc4ccc(S(N)(=O)=O)cc4)CC3)nc3c2SCCC3)c(C)c1 [23i] = 5.43
Cc1cc(C#N)cc(C)c1Oc1nc(NC2CCN(Cc3cccc(S(N)(=O)=O)c3)CC2)nc2c1SCCC2 [23d] = 4.65

Recorded EC50 (compound Cc1cc(C#N)cc(C)c1Oc1nc(NC2CCN(Cc3cccc(C#N)c3)CC2)nc2c1SCCC2 [compound 23b] ): 6
